systemTested: GP IIb-IIIa (αIIbβ3) (Homo sapiens, UniProt P05106+P08514)
Construct: purchased Calbiochem
Sequence (P08514 32-887 limits assumed): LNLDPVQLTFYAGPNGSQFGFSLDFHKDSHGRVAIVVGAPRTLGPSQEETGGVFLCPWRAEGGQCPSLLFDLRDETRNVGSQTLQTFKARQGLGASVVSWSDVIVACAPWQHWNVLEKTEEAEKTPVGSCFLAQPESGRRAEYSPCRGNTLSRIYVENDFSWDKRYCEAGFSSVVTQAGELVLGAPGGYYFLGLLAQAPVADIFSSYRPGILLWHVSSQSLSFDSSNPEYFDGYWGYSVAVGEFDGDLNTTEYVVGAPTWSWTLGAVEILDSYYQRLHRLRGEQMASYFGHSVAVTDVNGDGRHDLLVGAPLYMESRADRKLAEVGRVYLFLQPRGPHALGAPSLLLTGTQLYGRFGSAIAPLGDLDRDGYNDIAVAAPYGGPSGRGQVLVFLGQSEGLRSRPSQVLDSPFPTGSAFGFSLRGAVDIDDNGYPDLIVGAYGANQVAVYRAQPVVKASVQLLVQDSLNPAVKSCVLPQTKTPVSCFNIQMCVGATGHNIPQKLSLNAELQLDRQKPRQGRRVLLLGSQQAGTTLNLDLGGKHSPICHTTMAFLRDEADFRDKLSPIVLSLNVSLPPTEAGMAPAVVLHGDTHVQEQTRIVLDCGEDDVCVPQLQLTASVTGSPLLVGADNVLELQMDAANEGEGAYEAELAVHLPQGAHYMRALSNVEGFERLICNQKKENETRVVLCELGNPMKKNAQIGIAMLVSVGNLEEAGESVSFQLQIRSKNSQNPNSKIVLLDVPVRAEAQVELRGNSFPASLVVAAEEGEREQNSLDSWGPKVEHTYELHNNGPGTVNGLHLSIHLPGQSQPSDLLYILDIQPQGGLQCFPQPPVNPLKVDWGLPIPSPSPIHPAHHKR
Sequence (P08514 891-1039 partner limits assumed): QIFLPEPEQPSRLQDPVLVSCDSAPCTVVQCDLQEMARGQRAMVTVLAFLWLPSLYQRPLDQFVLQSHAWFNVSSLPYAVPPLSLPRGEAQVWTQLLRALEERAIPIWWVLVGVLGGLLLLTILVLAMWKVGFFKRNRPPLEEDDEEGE
Sequence (P05106 27-788): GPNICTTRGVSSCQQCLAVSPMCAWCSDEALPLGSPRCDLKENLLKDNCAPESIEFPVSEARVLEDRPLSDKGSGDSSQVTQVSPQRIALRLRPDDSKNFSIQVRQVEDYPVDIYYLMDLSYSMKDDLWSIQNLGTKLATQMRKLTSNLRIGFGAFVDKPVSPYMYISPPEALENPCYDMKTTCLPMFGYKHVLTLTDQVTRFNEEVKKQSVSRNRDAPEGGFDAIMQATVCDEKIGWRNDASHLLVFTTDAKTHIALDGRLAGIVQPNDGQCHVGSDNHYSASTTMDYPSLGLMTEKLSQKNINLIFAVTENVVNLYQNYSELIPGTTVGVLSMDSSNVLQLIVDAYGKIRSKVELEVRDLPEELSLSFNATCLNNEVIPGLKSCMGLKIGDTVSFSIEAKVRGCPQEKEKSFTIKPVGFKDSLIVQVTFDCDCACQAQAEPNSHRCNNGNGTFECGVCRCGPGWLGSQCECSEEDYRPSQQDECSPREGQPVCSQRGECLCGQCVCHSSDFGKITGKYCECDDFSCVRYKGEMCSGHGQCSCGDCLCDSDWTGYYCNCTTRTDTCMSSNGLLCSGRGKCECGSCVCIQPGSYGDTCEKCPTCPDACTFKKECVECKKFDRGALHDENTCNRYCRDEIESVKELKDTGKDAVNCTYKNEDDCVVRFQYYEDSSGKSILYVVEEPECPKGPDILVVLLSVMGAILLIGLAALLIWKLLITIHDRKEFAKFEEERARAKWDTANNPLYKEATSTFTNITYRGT
protocolSummary: Fibrinogen binding to immobilized GP IIb-IIIa (αIIbβ3)
Where a name gives a salt, the structure may show the parent alone.
valueKind: IC50 (nM)
Please respond with the number in nM and leave the unit unwritten.

- compound: "N=C(N)NCCCOc1ccc2cc(C(=O)NC[C@H](NS(=O)(=O)c3ccccc3)C(=O)O)cc(=O)n2c1 [Compound XV, Hydrochloride]"
  measureUnit: "nM"
  IC50: 5.3

Given the compound N=C(N)NCCOc1ccc2cc(C(=O)NC[C@H](NS(=O)(=O)c3ccccc3)C(=O)O)cc(=O)n2c1 [Compound XX, Hydrochloride] , what is its reported IC50?
7.9

---

List of pIC50 values.
systemTested: placental αvβ3 (Homo sapiens, UniProt P05106+P06756)
Construct: purified active GP IIb-IIIa (Calbiochem) or olacental αvβ3 at 0.5 μg/ml; from tissue; host or cells: placenta
protocolSummary: Fibrinogen binding to immobilized αvβ3
assaySetup: biotinylated-fibrinogen 10 nM, immobilized placental αvβ3; read-out: IC50 values for the fibrinogen binding assay αvβ3
Counter-ions that a name gives are not always drawn.
Interpret pIC50 as the negative base-10 log of the concentration measured in mol/L.

- compound: "O=C(O)CC(NC(=O)c1ccc2cc(NCCSC(=S)Nc3cccnc3)ccn2c1=O)c1ccccc1 (racemic) [Compound XXXVIII, trifluoroacetic acid salt]"
  readoutValue: 4.89

Alright, here's another compound for you.
So what's the measured pIC50 for this one? N=C(N)NCCCCCOc1ccc2ccc(C(=O)NC[C@H](NS(=O)(=O)c3ccccc3)C(=O)O)c(=O)n2c1 [Compound II, Hydrochloride]
4.62

---

Test system: Chick Chorioallantoic Membrane (CAM) capillary formation
protocolSummary: Chick chorioallantoic membrane (CAM) mesh assay
Assay type: in vivo, chicken
assaySetup: 3 μg/mesh, +VPF; Day 12, 24 hr treatment
Where a name gives a salt, the structure may show the parent alone.
Below, each entry is listed with its recorded CAM inhibition of capillary formation.
Answer in %, number only, no unit symbol.

Completed entries (count: 2):
- compound: "NCCCOc1ccc2ccc(C(=O)N[C@H]3CCCC[C@@H]3C(=O)O)c(=O)n2c1.O=C(O)C(F)(F)F (racemic)"
  CAM inhibition of capillary formation (%): 7
- compound: "N=C(N)NCCCOc1ccc2cc(C(=O)NC[C@H](NS(=O)(=O)c3ccccc3)C(=O)O)cc(=O)n2c1 [Compound XV, Hydrochloride]"
  CAM inhibition of capillary formation (%): 7

Can you look up the measured CAM inhibition of capillary formation of Cl.N=C(N)NCc1ccc2cc(C(=O)NC[C@H](NS(=O)(=O)c3ccccc3)C(=O)O)cc(=O)n2c1 for me?
9

Look at this compound and give its reported CAM inhibition of capillary formation. N=C(N)N1CCN(c2ccn3c(=O)c(C(=O)NC(CC(=O)O)c4ccccc4)ccc3c2)CC1.O=C(O)C(F)(F)F (racemic)
−2

Please report the recorded CAM inhibition of capillary formation for N=C(N)NCC1CCc2cc(C(=O)NCC(NS(=O)(=O)c3ccccc3)C(=O)O)cc(=O)n2C1 (centres unmarked) .
10

---

systemTested: αvβ3 (Homo sapiens, UniProt P05106+P06756)
Construct: expressed in transfected cells; host or cells: K562
Sequence (P06756 31-889 limits assumed): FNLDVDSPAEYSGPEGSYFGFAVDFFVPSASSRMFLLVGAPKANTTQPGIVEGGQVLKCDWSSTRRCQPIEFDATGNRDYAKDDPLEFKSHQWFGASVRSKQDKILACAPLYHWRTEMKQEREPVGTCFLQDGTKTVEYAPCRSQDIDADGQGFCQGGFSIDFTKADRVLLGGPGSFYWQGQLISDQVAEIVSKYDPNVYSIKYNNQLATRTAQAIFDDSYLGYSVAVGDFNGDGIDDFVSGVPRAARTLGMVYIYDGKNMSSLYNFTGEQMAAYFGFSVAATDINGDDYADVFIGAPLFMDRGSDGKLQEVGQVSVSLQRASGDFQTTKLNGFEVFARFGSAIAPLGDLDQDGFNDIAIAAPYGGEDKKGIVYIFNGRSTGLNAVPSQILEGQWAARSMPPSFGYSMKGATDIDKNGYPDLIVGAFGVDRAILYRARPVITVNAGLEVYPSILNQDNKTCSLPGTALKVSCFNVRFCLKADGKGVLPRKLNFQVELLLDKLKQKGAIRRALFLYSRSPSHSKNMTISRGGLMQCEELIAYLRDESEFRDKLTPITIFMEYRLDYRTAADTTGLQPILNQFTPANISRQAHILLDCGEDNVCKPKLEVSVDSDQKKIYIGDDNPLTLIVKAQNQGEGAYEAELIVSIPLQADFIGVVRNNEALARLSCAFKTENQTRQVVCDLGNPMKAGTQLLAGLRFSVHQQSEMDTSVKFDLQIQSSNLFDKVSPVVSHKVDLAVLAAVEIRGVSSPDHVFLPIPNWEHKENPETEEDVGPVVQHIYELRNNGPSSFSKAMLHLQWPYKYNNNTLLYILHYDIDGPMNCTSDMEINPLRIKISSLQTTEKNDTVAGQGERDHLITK
Sequence (P06756 891-1048 partner limits assumed): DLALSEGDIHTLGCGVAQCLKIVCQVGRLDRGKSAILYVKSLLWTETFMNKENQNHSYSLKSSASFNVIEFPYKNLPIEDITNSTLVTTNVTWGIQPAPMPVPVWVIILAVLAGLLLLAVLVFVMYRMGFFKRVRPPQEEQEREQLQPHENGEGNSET
Sequence (P05106 27-788): as the sequence (P05106 27-788) above
protocolSummary: Cell attachment assay, K562 transfected with αvβ3
Type: cell-based
assaySetup: ligand osteopontin, read-out: Cell attachment IC50, αvβ3, Osteo-Pontin
A collection of molecules and their measured IC50
Please give a number only; it is taken to be in µM.

- molecule: "Cl.N=C(N)NCc1ccc2cc(C(=O)NC[C@H](NS(=O)(=O)c3ccccc3)C(=O)O)cc(=O)n2c1 [Compound XXVII, Hydrochloride]"
  IC50, µM: 0.43

Please report the recorded IC50 for N=C(N)NCC1CCc2cc(C(=O)NCC(NS(=O)(=O)c3ccccc3)C(=O)O)cc(=O)n2C1 (centres unmarked) .
0.16
